Recorded %Inh for the following compounds
tested on: CDKL3; settings: concentration: 1 μM,replicates: in singlicate; n = 1;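 also: KINOMEscan kinase panel screen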
The reply should contain only the number, in %.

Below, 3 compounds whose answers are already recorded.
molecule=CCN(CC)CCCCNc1ncc2cc(-c3c(Cl)cccc3Cl)c(NC(=O)NC(C)(C)C)nc2n1 recorded_number=16
molecule=CNC(=O)c1ccccc1Sc1ccc2c(/C=C/c3ccccn3)n[nH]c2c1 recorded_number=0
molecule=Cc1n[nH]c2ccc(-c3cc(OC[C@@H](N)Cc4ccccc4)cnc3-c3ccoc3)cc12.O=C(O)C(F)(F)F.O=C(O)C(F)(F)F recorded_number=0

Record CCn1c(-c2nonc2N)nc2c(C#CC(C)(C)O)nc(OCCN)cc21.Cl.Cl . Reported %Inh: 0

The compound C[C@@H]1CCN(C(=O)CC#N)C[C@@H]1N(C)c1ncnc2[nH]ccc12 showed %Inh equal to 15

---

Below, each entry is listed with its recorded %Inh.
test system: CSF1R; conditions: concentration: 1 μM,replicates: in singlicate; n = 1
Response body: numeric value in %, unit text excluded.

molecule=Cc1ccc2c(-c3ccncc3)c(-c3ccc(F)cc3)nn2c1.Cl measured_on=CSF1R recorded_number=0
molecule=C[C@@H]1CCN(C(=O)CC#N)C[C@@H]1N(C)c1ncnc2[nH]ccc12 measured_on=CSF1R recorded_number=3
molecule=C[C@H]1Oc2cc(cnc2N)-c2c(nn(C)c2C#N)CN(C)C(=O)c2ccc(F)cc21 measured_on=CSF1R recorded_number=15
molecule=O=C(NCCNc1ccnc(NCc2ccc(F)cc2)n1)c1cc2ccccc2s1 measured_on=CSF1R recorded_number=9
molecule=Cl.Oc1cc(-c2nc(-c3ccccc3)[nH]c2-c2ccncc2)ccc1Cl measured_on=CSF1R recorded_number=2
molecule=Cc1cc(C(=O)Nc2ccc(Oc3ccc4nc(NC(=O)C5CC5)cn4n3)cc2)nn1-c1ccccc1 measured_on=CSF1R recorded_number=100
molecule=C=CC(=O)Nc1cc2c(Nc3ccc(F)c(Cl)c3)ncnc2cc1OCCCN1CCOCC1 measured_on=CSF1R recorded_number=13
molecule=NC(=O)c1cc(-c2ccccc2)cc2c(C3CCNCC3)c[nH]c12 measured_on=CSF1R recorded_number=53

Summary: Nc1nc(Nc2ccccc2)cc(-c2ccc3c(N)n[nH]c3c2)n1 , CSF1R, %Inh = 0

With CSF1R as the test system, CCn1c(-c2nonc2N)nc2c(C#CC(C)(C)O)nc(OCCN)cc21.Cl.Cl showed %Inh of 11

Measured %Inh for this entry Cl.Cl.NC[C@H](Cc1ccc(C(F)(F)F)cc1)NC(=O)c1cc(Br)c(-c2ccnc3[nH]ccc23)s1 on CSF1R: 0

---

test system: CAMK4; settings: concentration: 1 μM,replicates: in singlicate; n = 1
Each entry below lists one item and its recorded %Inh value.
Give the value in % but do not write % after it.

Here's what some known entries look like.
molecule=CCN(CC)CCOc1ccc(Nc2ncc3cc(-c4c(Cl)cccc4Cl)c(=O)n(C)c3n2)cc1 measured_quantity=%Inh recorded_number=0
molecule=O=C(NCCCN1CCOC1=O)c1cnc(NCc2cc(Cl)ccc2Cl)nc1NC1CCCC1 measured_quantity=%Inh recorded_number=10
molecule=O=C(NCCNc1ccnc(NCc2ccc(F)cc2)n1)c1cc2ccccc2s1 measured_quantity=%Inh recorded_number=0
molecule=Cc1cc2cn[nH]c2cc1-c1cccc2c(N)c(C(N)=O)nnc12 measured_quantity=%Inh recorded_number=27
molecule=NC(=O)c1cc(-c2ccccc2)cc2c(C3CCNCC3)c[nH]c12 measured_quantity=%Inh recorded_number=0
molecule=CCN(CC)CCCCNc1ncc2cc(-c3c(Cl)cccc3Cl)c(NC(=O)NC(C)(C)C)nc2n1 measured_quantity=%Inh recorded_number=20
molecule=CC(C)Nc1cc(-c2ccc3c(N)n[nH]c3c2)nc(N)n1 measured_quantity=%Inh recorded_number=0
molecule=COc1ccc(C[C@@H](CN)NC(=O)c2cc(Br)c(-c3ccnc4[nH]ccc34)s2)cc1.Cl.Cl measured_quantity=%Inh recorded_number=13
molecule=Cc1ccc2c(-c3ccncc3)c(-c3ccc(F)cc3)nn2c1.Cl measured_quantity=%Inh recorded_number=0

Here's the next entry for you.
The recorded %Inh for Nc1nc(Nc2ccccc2)cc(-c2ccc3c(N)n[nH]c3c2)n1 is 0

Origin of measurements: paper PMC5540273
